Origin of the recorded values: the supplement of paper PMC9170038

System: K4 kissing-loop RNA reporter;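 also: bound reporter read as fluorescence of individual clusters on recovered sequencing chips by microscopy, with normalized cluster intensities fitted with a binding model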
Test: apparent KD of K4 kissing-loop reporter; higher = weaker reporter binding
Details: Eterna round: R107; input ligand: none
Parameter: apparent KD of K4 kissing-loop reporter (nM)
Use nM as the unit, but write only the number.

{"columns": ["Sequence data", "Unit tag", "apparent KD of K4 kissing-loop reporter"],
 "data": [
  ["GAGUCGGCACAAGGAUAUAGGUGUAGUGAUGUUAUGUCUCCUUGACUCACUCGUUACCCUCAACGUCUAGAAGGUGUGAAUGCAG [theeternabot_exclusion_KL_FMN_B_46]", "nM", 290],
  ["AGUGGAACUUGCAGGUAUCCACAACUGGAUACCAGCUCGGAAACGAGCCCUUGGCAGCCAGAUCUUGCAGUGAUGUUGCAAGUUC [Design10]", "nM", 392],
  ["CCUAUCUCAUACGAUACCAGUCAAUGAAAUUUUAUCAAUGCCAUCACCGAGUGAUGUUCGGACCCUUGGCAGCGUAUGGGAUAGG [Ex Theophylline B K4 3]", "nM", 237],
  ["UCCCGAGUGAUGUUUGGCUGAUGGAGUGAUACCAGUCCCUAGACUGACCCUUGGCAGCACGACUUGUACCAGGCGGAUCACCCUG [theeternabot_exclusion_KL_Theo_A_5]", "nM", 423],
  ["AUUUAGACGAGUGAUGUUCGUGUUAUUACAGAGGAUAUGCGUAAUUGCAGAAGGCUGUAUUUAUAUAUGUUAUGUAAUUUUAAAA [JR_ExcFMNA_Sub007]", "nM", 88],
  ["AUAGAAAAGUGGCACCCUCACUAAAACAGUCGAGGACCGGUACGGCCGCCACUCGCGCGCUUUAGUGAUGUUAAAGCUAGGCGGA", "nM", 265],
  ["CGUGAGUGAUGUUCACGAGGCUUGUUUCUAGAGGAUAUUCACUUUAGAAGAAGGCUAGAGAUCUAUAUCGUGAUGCUCGAUAACG [FMN A Ex t1]", "nM", 197],
  ["CGUUCCUCUGUCGAUACCAGCUUCAGUUGGCGGCCAGUGAUGUUGGUAUCGCCGAUGCCAAGCCCUUGGCAGCGACAUGAGAACC [Uslaessobi]", "nM", 166]
]}

Ask | Suppose we examine the sequence UUAGCUCUAUAGAGCAAGAGGUCAACUGAUACCAGAGGCUAUAGCCUCCCUUGGCAGCGGAACGAGUGAUGUUCGAGACCUCAUU [AK6 SS Theophylline A] ; what apparent KD of K4 kissing-loop reporter value has been reported?
Reply | 1560

Ask | Suppose we examine the sequence CCGAAGAACCAGUGAUGUUGGUUGACUAGACAGGAUAUGAGCAACAUCAGAAGGGUCUGGCUUCGGGAGUGGGUCACGCUGACCU [Iserreanor] ; what apparent KD of K4 kissing-loop reporter value has been reported?
Reply | 426

Ask | Suppose we examine the sequence AAUGAGGACACUUGCAACAGUCCUCGAAUACGAGGACCGGUACGGCCGCCACUCGAUAACUUGCAGUGAUGUUGCAAGUAAGAAU [(T)''-(K)'-(T)'-(T1)-(T2)-(K1)-(K2)_Design2] ; what apparent KD of K4 kissing-loop reporter value has been reported?
Reply | 207

* * *

Tested on: MS2 coat protein
Experiment: apparent KD of MS2 coat protein, switch OFF state (with FMN for OFF switches, without FMN for ON switches); designed switch direction (-1 OFF switch, 1 ON switch): -1; higher = weaker reporter binding
Details: FMN input: 0 or 200 uM; Eterna round: R93 (includes R88 designs)
Each entry below lists one item and its recorded apparent KD of MS2 coat protein value.
Use nM as the unit, but write only the number.

Ask | Suppose we examine the sequence CUAAAGCGAGGAUAUACAAUAAAAGGGAAUAAGGGAAAAAAACAUGAGGAUCACCCAUGUAGAAGGCGCCGAAA [Ex 2 #1] ; what apparent KD of MS2 coat protein value has been reported?
Reply | 26.5

Ask | Suppose we examine the sequence AAAAAGUCAGGAUAUGUGGAAAAAAUAAAAAAAAUAAAAACACAGAAGGGACAUGAGGAUCACCCAUGUAAAAA [Ex 4 May 19] ; what apparent KD of MS2 coat protein value has been reported?
Reply | 47.2

Ask | Suppose we examine the sequence AAAAGCUCAGGAUAUACGGUCUGUUGUUGAGAAAUAUCGAAACAUGAGGAUCACCCAUGUAGAAGGGAGCGAAA [Exclusion2-cac2] ; what apparent KD of MS2 coat protein value has been reported?
Reply | 269

* * *

Tested on: MS2 coat protein
Assay: apparent KD of MS2 coat protein, switch ON state; designed switch direction (-1 OFF switch, 1 ON switch): -1; higher = weaker reporter binding
Details: FMN input: 0 or 200 uM; Eterna round: R93 (includes R88 designs)
Parameter: apparent KD of MS2 coat protein (nM)
Use nM as the unit, but write only the number.

Some entries whose results are on file:
{"columns": ["Sequence data", "Unit tag", "Observed"],
 "data": [
  ["GAAACACAUGAGGAUCACCCAUGUCAGGAUAUGUAGAUAAAAAGAAAAUAAAAUAAAAACAGAAGGGACAAAAG [Mat - Same state - Mayanna Mod - D103]", "nM", 64.4],
  ["AAAAAACAUGAGGAUCACCCAUGUUAGGAUAUCCUGCAGAAAAAAAAAAAAAACUGCAGGAGAAGGAGCAAGGA [Banishment 3 - Jieux - Exclusion 1]", "nM", 25.8],
  ["AAAAAGUGAGGAUAUACAUGAGGAUCACCCAUGUUAAAAAAGGAAAAAAAAAAAAAAUGUAGAAGGCGCAAAAA [water's exclusion 3]", "nM", 36.9],
  ["AACUGGGCAGGAUAUACAUGAGGAUCACCCAUGUAAAGAAAAGAAAGAUCCGAGGAAAGUAGAAGGGCCUGGAA [Variant 4 of Mod 1 of Ex3 sub 3, by Tesla's Dusciple Round 1]", "nM", 55.6]
]}

Ask | Suppose we examine the sequence AAAAAACAUGAGGAUCACCCAUGUCAGGAUAUUCGAAAAAAAAAAAAAAAAAAAAAAAGGAGAAGGGACGAAAA [DR Excl. 1] ; what apparent KD of MS2 coat protein value has been reported?
Reply | 43.4

Ask | Suppose we examine the sequence AGCUAGUCAGGAUAUACGAACAUGUCAAAAGACGUGAAAGAACAUGAGGAUCACCCAUGUAGAAGGGACUAGCA [Mat - Exclusion 2 - JL-Eli mod - D48] ; what apparent KD of MS2 coat protein value has been reported?
Reply | 19.4

Ask | Suppose we examine the sequence CUCAAGUAAGGAUAUCAAAGAAAAGAAGAGAAAGAAAAGAAUGAGAAGGUACAUGAGGAUCACCCAUGUAAGAA [EteRNA is fun!] ; what apparent KD of MS2 coat protein value has been reported?
Reply | 35.2

Ask | Suppose we examine the sequence AAAAAACAUGAGGAUCACCCAUGUCAGGAUAUACAAAAUAAAAUAAAAAUAAAAUAAAGUAGAAGGGACAAAAA [May 8] ; what apparent KD of MS2 coat protein value has been reported?
Reply | 28.5

* * *

Test system: MS2 coat protein
Assay: apparent KD of MS2 coat protein; designed switch direction (-1 OFF switch, 1 ON switch): -1; higher = weaker reporter binding
Conditions: Eterna round: R95; input ligand: FMN 200 uM
Hi, to clarify the labels: criterion met covers apparent KD of MS2 coat protein from 30 nM upward, criterion not met covers anything below 30 nM.

Consider the following illustrative entries.
{"columns": ["Sequence data", "Classification"],
 "data": [
  ["UUUUUCGAACAAGCAUCGAACAUGAGGAUCACCCAUGUAGGUAGAUUUGAGUAGGUAUGGAAGUAAGCUCGUCUUAU [JR_SV3TOV1_Sub080] (puzzle: Sensor v3, turn-off variant 1)", "criterion met"],
  ["AGUACUAUCACGAAAGUGUUAGUACAAUAAGCUUGUGAAACAUGAGGAUCACCCAUGUCCUCAUAAGCUCGUCUUAU [salish99_TOv2_r3_019] (puzzle: Sensor v3, turn-off variant 2)", "criterion not met"],
  ["AAUAAUGCAGGAUAUACAUGAGGAUCACCCAUGUGAAUAAAAUAAAUAAAAUGAUAAAGUAGAAGGGCAAAUAA [JMF's solution 1] (puzzle: Exclusion 3)", "criterion not met"],
  ["UCAUGGUAGCAGGAUAUGCUUGUUUAAUUUUUUGCAGAAGGGCUAACAUGAGGAUCACCCAUGUGAGAGGUCUA [JR_E6_Sub065] (puzzle: Exclusion 6)", "criterion met"],
  ["AGACAGUCAGGAUAUACAUGAGGAUCACCCAUGUUGAGAUGAGAAAGGGCAGGAAGAGGUAGAAGGGACGAGAG [JR_Exclu3_Sub036] (puzzle: Exclusion 3)", "criterion met"],
  ["UCAUAACAUGAGGAUCACCCAUGUGAGGAUAUGAUACUAUGUACUUCGGUACAUAGUAUCAGAAGGCACAUGCU [Brourd's Ex1-3: 11 (nt 72 G)] (puzzle: Exclusion 1)", "criterion met"],
  ["CAUGAUCUUCGGAUCAUGGACAUGAGGAUCACCCAUGUCACGAGCAGAUCUUCAUGCAAGCUUUUUGCUCGUCUUAU [Sensor v3 - Turn-off variant 1 - 38] (puzzle: Sensor v3, turn-off variant 1)", "criterion not met"],
  ["AGUACUAACACGAAAGUGUUAGUACAAUAAGCUUGUGAAACAUGAGGAUCACCCAUGUCCUCGUAAGCUCGUCUUAU [salish99_TOv2_r3_048] (puzzle: Sensor v3, turn-off variant 2)", "criterion met"]
]}

Ask | State whether the measured apparent KD of MS2 coat protein reaches 30 nM, counting equality as reaching it, for GAGAAAUUAUAGGAUAUCGUAUGGAUAAUUUAACGAGAAGGAUGAACAUGAGGAUCACCCAUGUGGUAUCAUGG [JL-ex6-3.13] (puzzle: Exclusion 6)
Reply | criterion met

Ask | State whether the measured apparent KD of MS2 coat protein reaches 30 nM, counting equality as reaching it, for CAGUACUGAGGAUAUACAUGAGGAUCACCCAUGUGUCCCUGCUAGGAAACUAGCAAAAGUAGAAGGCAGUACUG [Fiskers Ex 3 828 mod 3] (puzzle: Exclusion 3)
Reply | criterion met

Ask | State whether the measured apparent KD of MS2 coat protein reaches 30 nM, counting equality as reaching it, for GUGUAGCUAGGAUAUACAUGAGGAUCACCCAUGUGAAUAAGAUAGAAUAAGAUAAAGUGUAGAAGGAGUAGUGU [Excluse me!!! 15 - Jieux - Exclusion 3] (puzzle: Exclusion 3)
Reply | criterion not met

Ask | State whether the measured apparent KD of MS2 coat protein reaches 30 nM, counting equality as reaching it, for UUAUCCGCUGAGGAUAUUAUCAGUGAGAGCUGAUGAGAAGGCGGUACAUGAGGAUCACCCAUGUCUAUGGGCAG [Ex-6 Malc#24] (puzzle: Exclusion 6)
Reply | criterion met

Ask | State whether the measured apparent KD of MS2 coat protein reaches 30 nM, counting equality as reaching it, for CUGGUCCGAGGAUAUAUUAUGUGAUACAUGAGGAUCACCCAUGUAAUAUGAUGGAAGUAAAUAGAAGGCGGACUAG [Mat - Exclusion 5 - JL mod - D46] (puzzle: Exclusion 5)
Reply | criterion met

Ask | State whether the measured apparent KD of MS2 coat protein reaches 30 nM, counting equality as reaching it, for GAUUGACAUGAGGAUCACCCAUGUGAGGAUAUCGGCCGGACCGUGUUAGCUUCCGUCGCGAGAAGGCGCAUAGG [Exclusion 1 V38] (puzzle: Exclusion 1)
Reply | criterion met

Ask | State whether the measured apparent KD of MS2 coat protein reaches 30 nM, counting equality as reaching it, for GAGGAGCAAGGAUAUACGAGGAGAGGGAAGAGAGGAGAGAGACAUGAGGAUCACCCAUGUAGAAGGUGCAAGGA [JR_Exclu2_Sub092] (puzzle: Exclusion 2)
Reply | criterion met
